The origin of these recorded values is patent US6020366A.

# study target: MMP-2 (Gelatinase A) (Homo sapiens)
# Sequence (P08253 110-660): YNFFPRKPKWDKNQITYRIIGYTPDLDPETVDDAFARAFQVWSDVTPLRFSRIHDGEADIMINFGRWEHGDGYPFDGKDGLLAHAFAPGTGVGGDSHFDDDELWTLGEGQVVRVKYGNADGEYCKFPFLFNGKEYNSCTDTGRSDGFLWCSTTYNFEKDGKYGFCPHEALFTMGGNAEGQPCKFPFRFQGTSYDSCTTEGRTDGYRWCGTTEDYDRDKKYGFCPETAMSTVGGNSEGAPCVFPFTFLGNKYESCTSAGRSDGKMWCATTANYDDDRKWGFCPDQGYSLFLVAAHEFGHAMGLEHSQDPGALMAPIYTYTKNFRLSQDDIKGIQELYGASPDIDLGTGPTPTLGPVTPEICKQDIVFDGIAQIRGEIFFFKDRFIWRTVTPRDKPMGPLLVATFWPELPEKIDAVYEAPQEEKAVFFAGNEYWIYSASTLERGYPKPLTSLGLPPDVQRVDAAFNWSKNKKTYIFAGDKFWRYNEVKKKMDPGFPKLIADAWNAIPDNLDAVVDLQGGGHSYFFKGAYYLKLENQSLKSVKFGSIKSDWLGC
# protocol text: inhibition of MMP-2 hydrolysis of thiopeptolide substrate
# Format: biochemical
# condition context: thiopeptolide substrate, pH 6.0, 22° C.; read-out: (IC50) MMP-2
test readout: pIC50
// pIC50 is dimensionless: -log10 of concentration (M)

molecule	test readout	value measured
O=C(CC(NC(=O)c1cnc2ccccc2n1)C(=O)O)c1ccc2oc3ccccc3c2c1 (stereo not shown)	pIC50	6.51

What measured pIC50 goes with CCCCc1ccc(C(=O)NC(CC(=O)c2ccc3oc4ccccc4c3c2)C(=O)O)cc1 (stereo not shown) ?
6.06

What measured pIC50 goes with O=C(CC(NC(=O)C12CC3CC(CC(C3)C1)C2)C(=O)O)c1ccc2oc3ccccc3c2c1 (stereo not shown) ?
5.68

What measured pIC50 goes with O=C(COc1ccccc1)NC(CC(=O)c1ccc2oc3ccccc3c2c1)C(=O)O (stereo not shown) ?
6.74

###

# study target: MMP-3 (stromelysin) (Homo sapiens, UniProt P08254)
# Sequence (P08254 100-477): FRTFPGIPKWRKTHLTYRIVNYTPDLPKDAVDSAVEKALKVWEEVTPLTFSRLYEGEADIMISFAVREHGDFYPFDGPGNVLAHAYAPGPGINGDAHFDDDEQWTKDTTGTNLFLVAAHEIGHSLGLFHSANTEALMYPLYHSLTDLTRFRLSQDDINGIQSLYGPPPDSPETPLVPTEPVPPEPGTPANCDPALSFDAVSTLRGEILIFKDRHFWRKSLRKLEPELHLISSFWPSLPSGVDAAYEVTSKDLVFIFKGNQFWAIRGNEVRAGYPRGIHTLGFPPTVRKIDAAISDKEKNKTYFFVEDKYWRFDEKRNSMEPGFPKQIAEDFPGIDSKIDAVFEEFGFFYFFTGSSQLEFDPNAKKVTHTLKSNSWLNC
# protocol text: inhibition of MMP-3 hydrolysis of thiopeptolide substrate
# Type: biochemical
# condition context: thiopeptolide substrate, pH 6.0, 22° C.; read-out: (IC50) MMP-3
Items are presented alongside their recorded pIC50.
// pIC50 is dimensionless: -log10 of concentration (M)

# count of solved cases: 2
molecule	pIC50
O=C(CC(NC(=O)C1CCCCC1)C(=O)O)c1ccc2oc3ccccc3c2c1 (stereo not drawn)	6.15
O=C(CC(NC(=O)c1ccc2c(c1)OCO2)C(=O)O)c1ccc2oc3ccccc3c2c1 (stereo not drawn)	6.00

Below: the item to evaluate.
What measured pIC50 goes with `O=C(C[C@H](NC(=O)C(F)(F)F)C(=O)O)c1ccc2oc3ccccc3c2c1` ?
6.02

###

Items are presented alongside their recorded pIC50.
# study target: MMP-2 (Gelatinase A) (Homo sapiens, UniProt P08253)
# protocol text: inhibition of MMP-2 hydrolysis of thiopeptolide substrate
# Format: biochemical
# condition context: thiopeptolide substrate, pH 6.0, 22° C.; read-out: (IC50) MMP-2
// pIC50 is dimensionless: -log10 of concentration (M)

So what pIC50 did O=C(CC(NC(=O)c1sccc1Cl)C(=O)O)c1ccc2oc3ccccc3c2c1 (stereo not drawn) [Example 36] get with MMP-2 (Gelatinase A) (Homo sapiens, UniProt P08253)?
6.85
